Item-by-item account of aptazyme ON/OFF ratio
B1: Pistol ribozyme (parent)
chain: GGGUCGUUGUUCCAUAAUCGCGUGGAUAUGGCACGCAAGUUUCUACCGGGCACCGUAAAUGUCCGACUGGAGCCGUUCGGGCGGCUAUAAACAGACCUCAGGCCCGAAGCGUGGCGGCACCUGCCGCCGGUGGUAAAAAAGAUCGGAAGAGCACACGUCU

- Variants of: B1
- protocol-details: aptazyme ON/OFF ratio, guanine; higher = stronger switching; co-transcriptional cleavage with and without guanine
API note: the answer field is a bare number with no unit suffix.

Past entries and their recorded results:
mutation-name: U7C U8A U10A U11A C12U C13A
observed: 1.23
--
mutation-name: U7C U8A G9A U10G C12U C13G
observed: 1.14
--
mutation-name: U7G U8G U10C
observed: 1.38
--
mutation-name: U7C U8G U11C C12A C13U
observed: 1.34
--
mutation-name: U7G G9A U10G U11A C12U C13U
observed: 1.07
--
mutation-name: U7C U8G U10G U11C C12G C13G
observed: 1.18
--
mutation-name: U8G G9C U11A C12U
observed: 1.05
--
mutation-name: U7G U8G U10G C12G C13U
observed: 1.26
--
mutation-name: U7G U8C G9A U11G C12G C13G
observed: 1.08
--
mutation-name: U7A U8A G9A U10A C12A C13G
observed: 1.23

What measured aptazyme ON/OFF ratio goes with U7G U8C G9A U10A U11A C12G C13A ?
1.13

Try the variant U7G U8C U11G C13G
1.2

Try the variant U7G U8G G9C U10A U11A C12A
1.07

Try the variant U7G U8G G9U U10C C12G C13A
1.24

Try the variant U7C U8C G9C U10C U11C C12U C13A
1.08

Try the variant U7A U8C
1.98

Try the variant U7C U8A G9C U10C U11C C12A
1.06

Try the variant U7G U8A G9C U10G U11C C13A
1.03

Try the variant U7A U8A G9A U10G C12A C13A
1.21

Try the variant U7G U8A U11G
1.24

Try the variant U7C G9U U11G
1.35

Try the variant U7C G9U U10C U11C C12U C13G
1.02

Try the variant U7G U8A G9U U10C U11G C12U C13A
1.09

Try the variant U7A U8C G9U C12G
1.45

Try the variant U7G U8A G9C U10A C12U C13G
0.956

Try the variant U7G U8A G9C U10G U11A C12U C13G
1.06
